Values were extracted from patent US20180291110A1.

Measured koff by item
system-tested: T1, human transferrin receptor (recombinant, for surface plasmon resonance) (human, UniProt P02786 89-760)
T1 construct: also called huTfR; human transferrin receptor-biotinylated
T1 sequence (P02786 89-760 limits assumed): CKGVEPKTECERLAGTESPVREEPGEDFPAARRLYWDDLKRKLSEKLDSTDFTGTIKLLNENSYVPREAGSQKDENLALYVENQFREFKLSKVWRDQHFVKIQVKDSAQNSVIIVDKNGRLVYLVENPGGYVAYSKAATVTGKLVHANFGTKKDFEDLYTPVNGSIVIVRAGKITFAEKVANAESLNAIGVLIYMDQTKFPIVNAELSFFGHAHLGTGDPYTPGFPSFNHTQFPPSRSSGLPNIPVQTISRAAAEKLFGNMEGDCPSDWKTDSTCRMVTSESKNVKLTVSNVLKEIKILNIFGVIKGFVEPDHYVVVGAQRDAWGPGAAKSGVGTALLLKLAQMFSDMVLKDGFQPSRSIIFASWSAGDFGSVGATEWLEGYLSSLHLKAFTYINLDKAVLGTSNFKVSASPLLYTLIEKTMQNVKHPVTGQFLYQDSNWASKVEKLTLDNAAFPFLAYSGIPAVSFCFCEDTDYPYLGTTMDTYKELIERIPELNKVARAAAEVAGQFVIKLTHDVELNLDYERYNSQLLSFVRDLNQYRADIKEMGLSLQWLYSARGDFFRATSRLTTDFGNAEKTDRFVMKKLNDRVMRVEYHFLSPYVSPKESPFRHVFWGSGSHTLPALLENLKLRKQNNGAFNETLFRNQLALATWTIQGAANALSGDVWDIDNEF
procedure-text: SPR 25C
Please answer using a numeric value trailed by its unit.

Ask | Please give measured koff of the following entry: 2/99 VH11/VL6 (antibody, V domains shown) VH: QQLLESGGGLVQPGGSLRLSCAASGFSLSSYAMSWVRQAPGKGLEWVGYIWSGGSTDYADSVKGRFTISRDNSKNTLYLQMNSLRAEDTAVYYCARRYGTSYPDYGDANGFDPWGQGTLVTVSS VL: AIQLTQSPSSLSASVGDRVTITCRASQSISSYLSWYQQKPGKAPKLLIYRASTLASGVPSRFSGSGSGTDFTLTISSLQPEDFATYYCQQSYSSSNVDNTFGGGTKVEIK
Reply | 0.00671 s⁻¹

Ask | Please give measured koff of the following entry: 2/99 VH11/VL4 (antibody, V domains shown) VH: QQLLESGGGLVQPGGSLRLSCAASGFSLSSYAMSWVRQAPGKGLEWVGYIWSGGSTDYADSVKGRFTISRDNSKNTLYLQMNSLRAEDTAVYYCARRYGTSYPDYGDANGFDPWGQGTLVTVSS VL: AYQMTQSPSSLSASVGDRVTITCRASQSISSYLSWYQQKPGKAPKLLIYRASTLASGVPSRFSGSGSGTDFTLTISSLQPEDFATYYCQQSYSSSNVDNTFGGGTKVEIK
Reply | 0.00388 s⁻¹

New cases:
Ask | Please give measured koff of the following entry: 2/99 VH2/VL1 (antibody, V domains shown) VH: EVQLVETGGGLIQPGGSLRLSCAASGFSLSSYAMSWVRQAPGKGLEWVGYIWSGGSTDYADSVKGRFTISRDNSKNTLYLQMNSLRAEDTAVYYCARRYGTSYPDYGDANGFDPWGQGTLVTVSS VL: DIQMTQSPSSLSASVGDRVTITCRASQSISSYLNWYQQKPGKAPKLLIYRASSLQSGVPSRFSGSGSGTDFTLTISSLQPEDFATYYCQQSYSSSNVDNTFGGGTKVEIK
Reply | 0.001 s⁻¹
